The entries below are paired with their reported inhibition at 2 µM.
- Target of assay: SMO (Mus musculus)
- Construct: endogenous in cells; host or cells: C3H10T1/2 (ATCC #CCL-226)
- Sequence (P56726 33-793): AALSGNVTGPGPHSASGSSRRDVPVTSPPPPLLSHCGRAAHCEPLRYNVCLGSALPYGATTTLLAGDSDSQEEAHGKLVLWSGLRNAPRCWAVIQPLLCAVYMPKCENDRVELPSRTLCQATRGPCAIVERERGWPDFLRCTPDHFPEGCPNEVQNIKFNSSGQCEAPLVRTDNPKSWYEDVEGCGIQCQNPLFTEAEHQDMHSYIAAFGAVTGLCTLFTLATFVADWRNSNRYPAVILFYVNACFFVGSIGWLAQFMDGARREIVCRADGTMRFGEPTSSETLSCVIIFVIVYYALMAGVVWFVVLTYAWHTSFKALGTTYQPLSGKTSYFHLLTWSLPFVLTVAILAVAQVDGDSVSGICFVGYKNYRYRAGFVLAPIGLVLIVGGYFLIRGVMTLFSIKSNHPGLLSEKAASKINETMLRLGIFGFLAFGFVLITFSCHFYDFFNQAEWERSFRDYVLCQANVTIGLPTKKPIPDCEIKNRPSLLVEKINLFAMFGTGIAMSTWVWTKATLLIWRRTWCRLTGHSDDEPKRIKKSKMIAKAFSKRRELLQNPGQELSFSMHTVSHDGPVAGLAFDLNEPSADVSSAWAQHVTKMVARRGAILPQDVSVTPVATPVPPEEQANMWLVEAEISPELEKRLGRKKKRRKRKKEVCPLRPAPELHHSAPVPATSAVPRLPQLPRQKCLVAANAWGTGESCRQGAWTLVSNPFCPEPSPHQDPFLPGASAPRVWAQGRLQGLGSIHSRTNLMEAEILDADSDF
- Protocol: Smoothened (SMO)/Sonic Hedgehog (SHh) Transient Transcriptional Activation Assay (Gli-luciferase reporter in C3H10T1/2 cells)
- Assay type: cell-based, murine
- Measurement parameters: C3H 10T1/2, 2 μM test compound, SHh 250 ng/ml, 20 hrs, read-out: SMO CELL % INHIBITION @ 2 μM
Where a name gives a salt, the structure may show the parent alone.
# output: numeric value plus its unit

Before answering, review these 6 worked examples.
# Molecule, inhibition at 2 µM
rows = [
    ("O=C(N[C@@H]1CCC[C@H](c2nc3ccccc3[nH]2)C1)c1ccc2c(c1)CCNC2 [Example 309, HCl]", "102%"),
    ("CC(=O)c1c(C)[nH]c(C(=O)NC2CCCC(c3nc4ccccc4[nH]3)C2)c1C (stereo not shown) [Example 99]", "107%"),
    ("O=C(N[C@@H]1CCC[C@H](c2nc3ccccc3[nH]2)C1)c1n[nH]c2c1CCCCCC2 [Example 212]", "71%"),
    ("Cn1c([C@@H]2CCC[C@@H](NC(=O)c3ccc4c(c3)OCCO4)C2)nc2ccccc21 [Example 240, HCl]", "60%"),
    ("Cc1c(C(=O)N[C@@H]2CCC[C@H](c3nc4ccccc4[nH]3)C2)oc2ccccc12 [Example 189]", "65%"),
    ("CCc1c(C(=O)N[C@@H]2CCC[C@H](c3nc4ccccc4[nH]3)C2)[nH]c2ccccc12 [Example 214]", "100%"),
]

Kindly consider the entry below.
Q: // query inhibition at 2 µM value for entry Cc1c(Br)cc2[nH]c(C3CCCC(NC(=O)c4ccc5c(c4)OCCO5)C3)nc2c1C (stereo not shown) [Example 82, HCl]
A: 101%
